Taken from ChEMBL document CHEMBL1156853.

- system: UniProtKB P11473
- Sequence (P11473 whole entry, the tested form may be a part): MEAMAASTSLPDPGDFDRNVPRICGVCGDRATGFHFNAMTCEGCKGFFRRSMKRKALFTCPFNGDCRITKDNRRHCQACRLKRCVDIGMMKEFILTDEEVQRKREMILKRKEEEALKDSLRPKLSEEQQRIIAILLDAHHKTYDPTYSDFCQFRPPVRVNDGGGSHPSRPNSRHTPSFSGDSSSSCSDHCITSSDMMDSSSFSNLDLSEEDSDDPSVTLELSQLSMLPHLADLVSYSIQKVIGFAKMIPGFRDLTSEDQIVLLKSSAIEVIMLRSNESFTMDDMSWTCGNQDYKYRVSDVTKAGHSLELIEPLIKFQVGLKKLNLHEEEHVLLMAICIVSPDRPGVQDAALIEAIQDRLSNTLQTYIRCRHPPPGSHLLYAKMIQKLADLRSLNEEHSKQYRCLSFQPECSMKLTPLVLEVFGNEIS
- experiment description: Binding affinity to human VDR ligand binding domain assessed as SRC1 peptide binding dissociation constant by fluorescence anisotrophy relative to 1-alpha,25(OH)(2)D(3)
property label: fold change (FC)

> print(dat)
                                   molecule            system    property.label  number
1  C=C1/C(=C\C=C2/CCC[C@]3(C)[C@@H]([C@@H]4C[C@H](CC(C)(C)O)CO4)CC[C@@H]23)C[C@@H](O)C[C@@H]1O  UniProtKB P11473  fold change (FC)     1.7

I = C=C1/C(=C\C=C2/CCC[C@]3(C)[C@@H]([C@@H]4C[C@@H](CC(C)(C)O)CO4)CC[C@@H]23)C[C@@H](O)[C@H](C)[C@@H]1O
II = C=C1/C(=C\C=C2/CCC[C@]3(C)[C@@H]([C@@H]4C[C@H](CC(C)(C)O)CO4)CC[C@@H]23)C[C@@H](O)[C@H](C)[C@@H]1O
III = C=C1/C(=C\C=C2/CCC[C@]3(C)[C@@H]([C@@H]4C[C@@H](CC(C)(C)O)CO4)CC[C@@H]23)C[C@@H](O)C[C@@H]1O
Inquiry: Order field: fold change (FC) | Direction: descending (largest first) Enter labels, ranked according to the request.
Reply text: II, I, III
